Target: SAMHD1 A1 site (Homo sapiens, UniProt Q9Y3Z3)
Sequence (Q9Y3Z3 whole entry): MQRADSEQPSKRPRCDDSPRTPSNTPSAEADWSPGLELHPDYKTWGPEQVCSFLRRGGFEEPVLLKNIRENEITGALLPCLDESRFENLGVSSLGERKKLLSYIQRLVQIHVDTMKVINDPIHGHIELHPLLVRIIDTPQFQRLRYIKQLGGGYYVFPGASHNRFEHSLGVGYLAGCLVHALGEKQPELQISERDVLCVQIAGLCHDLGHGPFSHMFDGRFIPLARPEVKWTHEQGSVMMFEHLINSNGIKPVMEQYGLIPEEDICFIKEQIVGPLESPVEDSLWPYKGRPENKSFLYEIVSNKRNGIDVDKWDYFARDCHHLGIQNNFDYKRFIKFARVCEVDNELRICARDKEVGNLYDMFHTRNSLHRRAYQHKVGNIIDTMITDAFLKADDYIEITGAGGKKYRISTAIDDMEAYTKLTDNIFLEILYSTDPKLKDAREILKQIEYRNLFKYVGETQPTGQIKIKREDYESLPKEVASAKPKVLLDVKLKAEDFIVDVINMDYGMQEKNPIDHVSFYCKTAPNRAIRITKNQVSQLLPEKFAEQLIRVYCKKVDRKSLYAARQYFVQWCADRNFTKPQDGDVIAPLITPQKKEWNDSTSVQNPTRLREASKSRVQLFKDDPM
Experiment: fluorescence anisotropy competitive binding assay with 5′-FAM-pdGpdGpdG-3′ probe
Details: binding Kd (μM), competition with 5′ FAM-pdGpdGpdG-3′ probe
value.kind: Kd

> print(dat)
                                   compound     result
1  Nc1nc2c([nH]c(=O)n2[C@H]2C[C@H](O)[C@@H](CO)O2)c(=O)[nH]1 [Compound 8-oxo-dG, 8-oxo-deoxyguanosine]  > 1000 µM
2  Nc1nc2c(nc(Br)n2[C@H]2C[C@H](O)[C@@H](CO)O2)c(=O)[nH]1 [Compound 8-bromo-dG, 8-bromo-deoxyguanosine]  > 1000 µM

Continue with the next compound.
Query O=C(O)c1cccc(-c2cccc(Br)c2)c1 [Compound 1023, 3′-bromobiphenyl-3-carboxylic acid] yields Kd of > 500 µM
